# assaySystem: T1, human IL-23 (Sino Biological, CT048-H08H) (human, UniProt Q9NPF7 20-189; P29460 23-328)
# T1 construct: also called human IL-23 protein; Human IL-23 p19
# T1 sequence (looked up) 1: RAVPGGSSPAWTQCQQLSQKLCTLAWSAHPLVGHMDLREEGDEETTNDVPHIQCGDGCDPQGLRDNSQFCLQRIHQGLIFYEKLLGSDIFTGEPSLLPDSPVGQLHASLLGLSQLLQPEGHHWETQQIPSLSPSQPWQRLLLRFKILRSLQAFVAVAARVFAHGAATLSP
# T1 sequence (looked up) 2: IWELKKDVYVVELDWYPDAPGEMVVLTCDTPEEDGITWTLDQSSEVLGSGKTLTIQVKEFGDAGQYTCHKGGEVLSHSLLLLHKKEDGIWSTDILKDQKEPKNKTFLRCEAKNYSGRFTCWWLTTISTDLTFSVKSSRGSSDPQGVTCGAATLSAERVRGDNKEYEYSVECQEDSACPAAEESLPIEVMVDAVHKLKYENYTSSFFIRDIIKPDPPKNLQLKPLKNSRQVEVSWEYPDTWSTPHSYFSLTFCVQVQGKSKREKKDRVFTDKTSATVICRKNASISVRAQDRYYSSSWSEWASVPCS
# experimentSummary: SPR (Biacore), Protein A capture of sample, 1:1 model
Recorded kon for the following binders

{"binder": "Hu38-13 (antibody, human IgG1, kappa, L234A L235A, V domains shown, humanized mAb38, IgG1/kappa) VH: EFQLVQSGAEVKKPGASVKVSCKASGYSFTDHNMNWVRQAPGQSLEWMGVINPNYGTTTYNQKFKGRVTITVDQSASTAYMELSSLRSEDTAVYYCARRGFAYWGQGTLVTVSS VL: DIVMTQTPLSLPVTPGEPASISCRSSKSLLYKDGKTYLNWYLQKPGQSPQLLIYLMSTRASGVPDRFSGSGSGTDFTLKISRVEAEDVGVYYCQQIAEYPFTFGSGTKLEIKR", "unitLabel": "M⁻¹ s⁻¹", "kon": 206000}
{"binder": "Hu38-3 (antibody, human IgG1, kappa, L234A L235A, V domains shown, humanized mAb38, IgG1/kappa) VH: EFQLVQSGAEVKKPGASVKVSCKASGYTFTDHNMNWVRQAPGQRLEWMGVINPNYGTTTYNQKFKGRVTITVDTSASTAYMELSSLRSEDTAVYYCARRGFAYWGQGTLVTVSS VL: DIVITQTPLSLPVTPGEPASISCRSSKSLLYKDGKTYLNWFLQRPGQSPQLLIYLMSTRASGVPDRFSGSGSGTDLTLKISRVEAEDVGVYYCQQIAEYPFTFGSGTKLEIKR", "unitLabel": "M⁻¹ s⁻¹", "kon": 393000}
{"binder": "Hu38-15 (antibody, human IgG1, kappa, L234A L235A, V domains shown, humanized mAb38, IgG1/kappa) VH: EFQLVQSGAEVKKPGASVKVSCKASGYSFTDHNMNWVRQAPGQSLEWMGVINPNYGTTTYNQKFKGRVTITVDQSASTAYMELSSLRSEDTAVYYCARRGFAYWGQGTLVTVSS VL: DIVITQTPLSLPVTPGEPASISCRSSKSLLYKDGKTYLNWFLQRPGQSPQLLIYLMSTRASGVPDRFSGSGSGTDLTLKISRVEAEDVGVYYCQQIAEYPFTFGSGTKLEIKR", "unitLabel": "M⁻¹ s⁻¹", "kon": 494000}

Sourced from patent US20240400670A1
